The origin of these recorded values is BigSolDB 2.1.

# EXPERIMENTAL_PARAMETERS: in isopentanol, 283.1 K
OBSERVED_PROPERTY: solubility (mole fraction)
Give bare numbers.

// fetch solubility (mole fraction) given entry OC[C@@H](O)CN1CCN(c2ccccc2)CC1
0.000649

* * *

# EXPERIMENTAL_PARAMETERS: in isopropyl acetate, 283.1 K
OBSERVED_PROPERTY: solubility (mole fraction)
Answers are plain numbers.

// fetch solubility (mole fraction) given entry OC[C@@H](O)CN1CCN(c2ccccc2)CC1
0.000293

* * *

# EXPERIMENTAL_PARAMETERS: in n-butyl acetate, 293.1 K
OBSERVED_PROPERTY: solubility (mole fraction)
Give bare numbers.

// fetch solubility (mole fraction) given entry OC[C@@H](O)CN1CCN(c2ccccc2)CC1
0.000551

* * *

# EXPERIMENTAL_PARAMETERS: in n-hexanol, 323.1 K
OBSERVED_PROPERTY: solubility (mole fraction)
One number for each entry.

// fetch solubility (mole fraction) given entry OC[C@@H](O)CN1CCN(c2ccccc2)CC1
0.00651

* * *

# EXPERIMENTAL_PARAMETERS: in n-butyl acetate, 283.1 K
OBSERVED_PROPERTY: solubility (mole fraction)
Numbers only.

// fetch solubility (mole fraction) given entry OC[C@@H](O)CN1CCN(c2ccccc2)CC1
0.00032

* * *

# EXPERIMENTAL_PARAMETERS: in isopentanol, 298.1 K
OBSERVED_PROPERTY: solubility (mole fraction)
Numbers only.

// fetch solubility (mole fraction) given entry OC[C@@H](O)CN1CCN(c2ccccc2)CC1
0.00165

* * *

# EXPERIMENTAL_PARAMETERS: in n-pentyl acetate, 303.1 K
OBSERVED_PROPERTY: solubility (mole fraction)

// fetch solubility (mole fraction) given entry OC[C@@H](O)CN1CCN(c2ccccc2)CC1
0.000888

* * *

# EXPERIMENTAL_PARAMETERS: in isopropyl acetate, 318.1 K
OBSERVED_PROPERTY: solubility (mole fraction)
Answers are plain numbers.

// fetch solubility (mole fraction) given entry OC[C@@H](O)CN1CCN(c2ccccc2)CC1
0.00172

* * *

# EXPERIMENTAL_PARAMETERS: in n-heptanol, 308.1 K
OBSERVED_PROPERTY: solubility (mole fraction)
Give bare numbers.

// fetch solubility (mole fraction) given entry OC[C@@H](O)CN1CCN(c2ccccc2)CC1
0.00297

* * *

# EXPERIMENTAL_PARAMETERS: in n-butanol, 288.1 K
OBSERVED_PROPERTY: solubility (mole fraction)
Answers are plain numbers.

// fetch solubility (mole fraction) given entry OC[C@@H](O)CN1CCN(c2ccccc2)CC1
0.00072

* * *

# EXPERIMENTAL_PARAMETERS: in n-pentanol, 298.1 K
OBSERVED_PROPERTY: solubility (mole fraction)
Answers are plain numbers.

// fetch solubility (mole fraction) given entry OC[C@@H](O)CN1CCN(c2ccccc2)CC1
0.00163

* * *

# EXPERIMENTAL_PARAMETERS: in n-butyl acetate, 298.1 K
OBSERVED_PROPERTY: solubility (mole fraction)
Answers are plain numbers.

// fetch solubility (mole fraction) given entry OC[C@@H](O)CN1CCN(c2ccccc2)CC1
0.000714

* * *

# EXPERIMENTAL_PARAMETERS: in isopropyl acetate, 293.1 K
OBSERVED_PROPERTY: solubility (mole fraction)
One number for each entry.

// fetch solubility (mole fraction) given entry OC[C@@H](O)CN1CCN(c2ccccc2)CC1
0.000484

* * *

# EXPERIMENTAL_PARAMETERS: in isobutanol, 293.1 K
OBSERVED_PROPERTY: solubility (mole fraction)
Answers are plain numbers.

// fetch solubility (mole fraction) given entry OC[C@@H](O)CN1CCN(c2ccccc2)CC1
0.00147

* * *

# EXPERIMENTAL_PARAMETERS: in n-hexanol, 308.1 K
OBSERVED_PROPERTY: solubility (mole fraction)
One number for each entry.

// fetch solubility (mole fraction) given entry OC[C@@H](O)CN1CCN(c2ccccc2)CC1
0.00304

* * *

# EXPERIMENTAL_PARAMETERS: in n-propyl acetate, 288.1 K
OBSERVED_PROPERTY: solubility (mole fraction)
Give bare numbers.

// fetch solubility (mole fraction) given entry OC[C@@H](O)CN1CCN(c2ccccc2)CC1
0.000469

* * *

# EXPERIMENTAL_PARAMETERS: in n-pentanol, 318.1 K
OBSERVED_PROPERTY: solubility (mole fraction)
Give bare numbers.

// fetch solubility (mole fraction) given entry OC[C@@H](O)CN1CCN(c2ccccc2)CC1
0.00493

* * *

# EXPERIMENTAL_PARAMETERS: in isobutanol, 318.1 K
OBSERVED_PROPERTY: solubility (mole fraction)

// fetch solubility (mole fraction) given entry OC[C@@H](O)CN1CCN(c2ccccc2)CC1
0.0052

* * *

# EXPERIMENTAL_PARAMETERS: in isopentanol, 323.1 K
OBSERVED_PROPERTY: solubility (mole fraction)

// fetch solubility (mole fraction) given entry OC[C@@H](O)CN1CCN(c2ccccc2)CC1
0.00611

* * *

# EXPERIMENTAL_PARAMETERS: in n-propyl acetate, 323.1 K
OBSERVED_PROPERTY: solubility (mole fraction)

// fetch solubility (mole fraction) given entry OC[C@@H](O)CN1CCN(c2ccccc2)CC1
0.00293

* * *

# EXPERIMENTAL_PARAMETERS: in n-heptanol, 323.1 K
OBSERVED_PROPERTY: solubility (mole fraction)

// fetch solubility (mole fraction) given entry OC[C@@H](O)CN1CCN(c2ccccc2)CC1
0.00628

* * *

# EXPERIMENTAL_PARAMETERS: in n-pentanol, 288.1 K
OBSERVED_PROPERTY: solubility (mole fraction)
Answers are plain numbers.

// fetch solubility (mole fraction) given entry OC[C@@H](O)CN1CCN(c2ccccc2)CC1
0.000945

* * *

# EXPERIMENTAL_PARAMETERS: in n-propyl acetate, 303.1 K
OBSERVED_PROPERTY: solubility (mole fraction)
Answers are plain numbers.

// fetch solubility (mole fraction) given entry OC[C@@H](O)CN1CCN(c2ccccc2)CC1
0.00103

* * *

# EXPERIMENTAL_PARAMETERS: in n-propanol, 288.1 K
OBSERVED_PROPERTY: solubility (mole fraction)
One number for each entry.

// fetch solubility (mole fraction) given entry OC[C@@H](O)CN1CCN(c2ccccc2)CC1
0.000943

* * *

# EXPERIMENTAL_PARAMETERS: in n-pentanol, 313.1 K
OBSERVED_PROPERTY: solubility (mole fraction)
Give bare numbers.

// fetch solubility (mole fraction) given entry OC[C@@H](O)CN1CCN(c2ccccc2)CC1
0.00372

* * *

# EXPERIMENTAL_PARAMETERS: in n-hexanol, 303.1 K
OBSERVED_PROPERTY: solubility (mole fraction)
Numbers only.

// fetch solubility (mole fraction) given entry OC[C@@H](O)CN1CCN(c2ccccc2)CC1
0.00235

* * *

# EXPERIMENTAL_PARAMETERS: in n-pentyl acetate, 288.1 K
OBSERVED_PROPERTY: solubility (mole fraction)

// fetch solubility (mole fraction) given entry OC[C@@H](O)CN1CCN(c2ccccc2)CC1
0.000391

* * *

# EXPERIMENTAL_PARAMETERS: in n-butanol, 323.1 K
OBSERVED_PROPERTY: solubility (mole fraction)
Answers are plain numbers.

// fetch solubility (mole fraction) given entry OC[C@@H](O)CN1CCN(c2ccccc2)CC1
0.00579

* * *

# EXPERIMENTAL_PARAMETERS: in n-propyl acetate, 298.1 K
OBSERVED_PROPERTY: solubility (mole fraction)
Answers are plain numbers.

// fetch solubility (mole fraction) given entry OC[C@@H](O)CN1CCN(c2ccccc2)CC1
0.000803

* * *

# EXPERIMENTAL_PARAMETERS: in ethyl acetate, 323.1 K
OBSERVED_PROPERTY: solubility (mole fraction)

// fetch solubility (mole fraction) given entry OC[C@@H](O)CN1CCN(c2ccccc2)CC1
0.00299

* * *

# EXPERIMENTAL_PARAMETERS: in n-butanol, 313.1 K
OBSERVED_PROPERTY: solubility (mole fraction)
Answers are plain numbers.

// fetch solubility (mole fraction) given entry OC[C@@H](O)CN1CCN(c2ccccc2)CC1
0.00318

* * *

# EXPERIMENTAL_PARAMETERS: in n-pentyl acetate, 293.1 K
OBSERVED_PROPERTY: solubility (mole fraction)
Give bare numbers.

// fetch solubility (mole fraction) given entry OC[C@@H](O)CN1CCN(c2ccccc2)CC1
0.000525

* * *

# EXPERIMENTAL_PARAMETERS: in n-propyl acetate, 318.1 K
OBSERVED_PROPERTY: solubility (mole fraction)
Numbers only.

// fetch solubility (mole fraction) given entry OC[C@@H](O)CN1CCN(c2ccccc2)CC1
0.00222

* * *

# EXPERIMENTAL_PARAMETERS: in ethyl acetate, 318.1 K
OBSERVED_PROPERTY: solubility (mole fraction)
One number for each entry.

// fetch solubility (mole fraction) given entry OC[C@@H](O)CN1CCN(c2ccccc2)CC1
0.00229
